meta.source: the supplement of paper PMC11061612

# Tested on: CAMA-1 (Breast Carcinoma);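 note: after 72 h of two-drug dosing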
# run description: Bliss excess, mean over the matrix (fraction); higher = more synergy

| compound | Bliss excess |
| --- | --- |
| COc1nnc2ccc(N3CCC(c4ccc(OCCN5CCN(C)C(=O)[C@H]5C)cc4)CC3)nn12 [AZD5153] + CC1(C)CCC(CN2CCN(c3ccc(C(=O)NS(=O)(=O)c4ccc(NCC5CCOCC5)c([N+](=O)[O-])c4)c(Oc4cnc5[nH]ccc5c4)c3)CC2)=C(c2ccc(Cl)cc2)C1 [Venetoclax] (first compound max 1 µM, 7x7, partner max 1 µM) | -0.0564 |
| Cc1nc(-c2cn3c(n2)-c2ccc(-c4cnn(C(C)(C)C(N)=O)c4)cc2OCC3)n(C(C)C)n1 [Taselisib] + O=C(Nc1ccc2[nH]nc(-c3ccncc3)c2c1)[C@@H]1CCN(CC(=O)N2CCN(c3ccc(-c4ncccn4)cc3)CC2)C1 [SCH772984] (first compound max 10 µM, 7x7, partner max 5 µM) | 0.0216 |
| N#Cc1cnc(Nc2cc(NC[C@H]3CNCCO3)c(C(F)(F)F)cn2)cn1 [SRA737] + O=c1[nH]cc(F)c(=O)[nH]1 [5-Fluorouracil] (first compound max 10 µM, 7x7, partner max 20 µM) | 0.0209 |
| CCN(CCO)CCCOc1ccc2c(Nc3cc(CC(=O)Nc4cccc(F)c4)[nH]n3)ncnc2c1 [AZD2811] + C[C@@H]1COCCN1C2=NC(=NC(=C2)C3(CC3)[S@](=N)(=O)C)C4=C5C=CNC5=NC=C4 [AZD6738] (first compound max 1 µM, 7x7, partner max 10 µM) | -0.0417 |
| COc1cc2ncnc(Nc3ccc(F)c(Cl)c3)c2cc1OCCCN1CCOCC1 [Gefitinib] + CC(C)n1c(=O)n(C)c2cnc3cc(F)c(-c4ccc(OCCCN5CCCCC5)nc4)cc3c21 [AZD1390] (first compound max 10 µM, 7x7, partner max 0.3 µM) | -0.0434 |
| CC1(C)CCC(CN2CCN(c3ccc(C(=O)NS(=O)(=O)c4ccc(NCC5CCOCC5)c([N+](=O)[O-])c4)c(Oc4cnc5[nH]ccc5c4)c3)CC2)=C(c2ccc(Cl)cc2)C1 [Venetoclax] + Cn1cnc2c(F)c(Nc3ccc(Br)cc3Cl)c(C(=O)NOCCO)cc21 [Selumetinib] (first compound max 1 µM, 7x7, partner max 3 µM) | -0.0332 |
| CN(CCO)CC[C@H](CSc1ccccc1)Nc1ccc(S(=O)(=O)NC(=O)c2ccc(N3CCC([C@@H](O)c4ccccc4-c4ccc(Cl)cc4)CC3)cc2)cc1S(=O)(=O)C(F)(F)F [AZD4320] + CC(=O)O[C@H]1C(=O)[C@@]2(C)[C@H]([C@H](OC(=O)c3ccccc3)[C@]3(O)C[C@H](OC(=O)[C@H](O)[C@@H](NC(=O)c4ccccc4)c4ccccc4)C(C)=C1C3(C)C)[C@]1(OC(C)=O)CO[C@@H]1C[C@@H]2O [Paclitaxel] (first compound max 1 µM, 7x7, partner max 3 µM) | 0.119 |
| C[C@@H](c1ccc2nccn2c1)n1nnc2ncc(-c3cnn(C)c3)nc21 [Savolitinib] + CC1(C)CCC(CN2CCN(c3ccc(C(=O)NS(=O)(=O)c4ccc(NCC5CCOCC5)c([N+](=O)[O-])c4)c(Oc4cnc5[nH]ccc5c4)c3)CC2)=C(c2ccc(Cl)cc2)C1 [Venetoclax] (first compound max 1 µM, 7x7, partner max 1 µM) | -0.0211 |
